- Tested on: MDA-N
- METHOD: NCI tumour cell line growth inhibition, 48 h
The source made the active and inactive calls. Cut-off read from the data, not from the text of the source: active = GI50 up to about 1.1 µM and inactive = higher.
MEASURED_ATTRIBUTE: GI50

>>> print(df.to_string())
                                   compound  measured_attribute               result
0  COc1ccc(NC(=O)CSc2nnc(-c3ccc(/N=C\c4ccc(Cl)cc4)cc3)o2)cc1                GI50   39.6 µM (inactive)
1  O=C(CC(C(=O)c1cccs1)c1ccsc1)c1ccc(Cl)cc1 (stereo not given)                GI50  > 100 µM (inactive)
2  CN(C)CCCNc1cc(O)c2c(c1O)C(=O)c1ccccc1C2=O                GI50   14.3 µM (inactive)
3  O=C(c1ccccc1)n1c2ccc(Br)cc2c2nc3ccccc3nc21                GI50  > 100 µM (inactive)
4  Cc1nc([N+](=O)[O-])cn1-c1nc2ccccn2c1[N+](=O)[O-]                GI50   57.4 µM (inactive)

====

- Test system: TK-10
- METHOD: NCI tumour cell line growth inhibition, 48 h
Active and inactive are the calls of the source. Rule as the data show it: active = GI50 up to about 1.1 µM and inactive = higher.
Reported GI50 values follow for various compounds
MEASURED_ATTRIBUTE: GI50

In [3]: df
Out[3]:
                                    compound               result
 0  CCCCCCCCCCCCCCCC(=O)Nc1ccn(C2CCC(COP(=O)(O)OCC3OC(n4cc(F)c(=O)[nH]c4=O)CC3OC(C)=O)O2)c(=O)n1 (stereo unspecified)   24.4 µM (inactive)
 1  O=C1C(=Cc2cccc(O)c2)N=C(c2ccccc2)N1n1c(-c2ccccc2)nc2ccccc2c1=O   48.3 µM (inactive)
 2  CC1C(C#N)(C#N)C(C#N)=C(N)C1(Cl)[N+](=O)[O-] (stereo unspecified)   14.9 µM (inactive)
 3  O=C(COC(=O)c1cccc2c(=O)c3ccccc3[nH]c12)Nc1ccc(S(=O)(=O)Nc2ncccn2)cc1   39.4 µM (inactive)
 4  C[n+]1c(-c2ccc(/C=N/Nc3n[nH]c(=S)n3N/N=C/c3ccc(-c4cn5ccccc5[n+]4C)cc3)cc2)cn2ccccc21  > 100 µM (inactive)
 5  O=C1NC(=S)NC(=O)C1=Cc1ccc([N+](=O)[O-])o1     61 µM (inactive)
 6   CC1=NN(C2=NS(=O)(=O)c3ccccc3N2C)C(=O)C1  > 100 µM (inactive)
 7  CC(C)(C)c1cc(C2COC(=O)COCC(=O)OCCOCCOCCO2)cc(C(C)(C)C)c1O (stereo unspecified)   20.4 µM (inactive)
 8  COC1(OC)N=C(N)C2(C#N)/C(=N/N(C)C)CC(C)C12C#N (stereo unspecified)  > 100 µM (inactive)
 9  COc1ccc(/C=c2/sc3n(c2=O)NC2(CCC(C)CC2)NN=3)cc1 (stereo unspecified)  > 100 µM (inactive)
10             Cc1cc(-c2nc3cccc(O)c3s2)ccc1N   33.6 µM (inactive)
11  C#CCN(Cc1ccc2nc(-c3ccccc3)c(N)nc2c1)c1cc(OC)c(OC)c(OC)c1   46.1 µM (inactive)
12  CC1(c2ccccc2Cl)C(C#N)C(=O)NC(=O)C1C#N (stereo unspecified)  > 100 µM (inactive)
13       CN(/N=C/c1ccc(Cl)c(Cl)c1)C1=NCCCCN1   69.8 µM (inactive)
14  O=C1O/C(=C(/Cl)c2c3ccccc3cc3ccccc23)c2ccccc21   32.8 µM (inactive)
15  CC(=O)C12C[C@](C#N)(N3CCCCCC3)C1C=Cc1ccccc12 (stereo partly specified)  > 100 µM (inactive)
16  COc1cccc(C2c3cc4c(cc3OC(O)C2C)OCO4)c1OC (stereo unspecified)    7.4 µM (inactive)
17         O=C(O)c1ccccc1/C=C1\Cc2ccccc2C1=O  > 100 µM (inactive)
18  COC(=O)c1c(O)ccc2c1c1c(n2Cc2ccccn2)C(=O)c2ccccc2C1  > 100 µM (inactive)
19  Cc1c(S(=O)(=O)c2ccccc2)c(N)n(Cc2ccccc2)c1C  > 100 µM (inactive)
20  Cc1ccc(/N=N/c2ccc(N)cc2C)c(S(N)(=O)=O)c1   48.9 µM (inactive)

Data provenance: ChEMBL document CHEMBL1201862
